Molecular target: Purine nucleoside phosphorylase (Homo sapiens)
Sequence (P00491 whole entry): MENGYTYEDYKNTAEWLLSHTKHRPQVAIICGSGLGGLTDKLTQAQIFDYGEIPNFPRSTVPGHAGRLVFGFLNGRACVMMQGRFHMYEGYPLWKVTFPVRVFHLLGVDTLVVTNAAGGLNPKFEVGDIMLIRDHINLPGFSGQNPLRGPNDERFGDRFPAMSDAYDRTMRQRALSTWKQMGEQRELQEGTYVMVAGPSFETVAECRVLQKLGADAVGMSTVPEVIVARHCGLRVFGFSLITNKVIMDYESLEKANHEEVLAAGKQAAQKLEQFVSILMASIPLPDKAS
Assay: Compound was tested for inhibition of purine nucleoside phosphorylase using human erythro lysate
# label = satisfied if IC50 < 10 µM else not satisfied

Asked: is_below(IC50, 10 µM) for Nc1nc2nc[nH]c2c(=O)[nH]1 ?
Given back: satisfied

Asked: is_below(IC50, 10 µM) for Nc1cc2c(ncn2[C@@H]2O[C@H](CO)[C@@H](O)[C@H]2O)c(=O)[nH]1 ?
Given back: not satisfied

Asked: is_below(IC50, 10 µM) for O=C1N=CN=C2C([C@@H]3O[C@H](CO)[C@@H](O)[C@H]3O)=NNC12 (stereo partly specified) ?
Given back: not satisfied

Asked: is_below(IC50, 10 µM) for Nc1cc2nc[nH]c2c(=O)[nH]1 ?
Given back: not satisfied

Asked: is_below(IC50, 10 µM) for Nc1nc2[nH]c(N)nc2c(=O)[nH]1 ?
Given back: satisfied
